Hey, just so you know, these numbers are from the supplement of paper PMC6757056.

B1: library; a variant is named by its letters at N, in order (parent)
chain: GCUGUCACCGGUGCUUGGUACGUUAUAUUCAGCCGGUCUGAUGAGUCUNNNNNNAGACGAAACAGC

- Variants of: B1
- test.protocol: normalized RNA/DNA level with ligand (relative to sTRSVctl = 100) (log10 (% of sTRSVctl)); HEK293T overexpressing SLC46A1; ligand concentration (+) RNA-Seq: 6 mM; higher = less ribozyme self-cleavage, higher mRNA level
- protocol.conditions: with (6R,S)-folinic acid; ligand present: yes
attribute.measured: normalized RNA/DNA level with ligand (log10)

> print(dat)
                                         seq  measured
 1  GCUGUCACCGGUGCUUGGUACGUUAUAUUCAGCCGGUCUGAUGAGUCUUGGCUUAGACGAAACAGC [UGGCUU]      2.04
 2  GCUGUCACCGGUGCUUGGUACGUUAUAUUCAGCCGGUCUGAUGAGUCUCGUAUAAGACGAAACAGC [CGUAUA]      1.98
 3  GCUGUCACCGGUGCUUGGUACGUUAUAUUCAGCCGGUCUGAUGAGUCUUAAAUAAGACGAAACAGC [UAAAUA]         2
 4  GCUGUCACCGGUGCUUGGUACGUUAUAUUCAGCCGGUCUGAUGAGUCUUGACUUAGACGAAACAGC [UGACUU]      2.02
 5  GCUGUCACCGGUGCUUGGUACGUUAUAUUCAGCCGGUCUGAUGAGUCUUACCACAGACGAAACAGC [UACCAC]      1.99
 6  GCUGUCACCGGUGCUUGGUACGUUAUAUUCAGCCGGUCUGAUGAGUCUACUUUGAGACGAAACAGC [ACUUUG]         2
 7  GCUGUCACCGGUGCUUGGUACGUUAUAUUCAGCCGGUCUGAUGAGUCUGGACCGAGACGAAACAGC [GGACCG]      2.02
 8  GCUGUCACCGGUGCUUGGUACGUUAUAUUCAGCCGGUCUGAUGAGUCUCACUGUAGACGAAACAGC [CACUGU]      2.06
 9  GCUGUCACCGGUGCUUGGUACGUUAUAUUCAGCCGGUCUGAUGAGUCUAACUCUAGACGAAACAGC [AACUCU]      2.02
10  GCUGUCACCGGUGCUUGGUACGUUAUAUUCAGCCGGUCUGAUGAGUCUAAUUACAGACGAAACAGC [AAUUAC]      2.01
11  GCUGUCACCGGUGCUUGGUACGUUAUAUUCAGCCGGUCUGAUGAGUCUGAGUUGAGACGAAACAGC [GAGUUG]      2.03
12  GCUGUCACCGGUGCUUGGUACGUUAUAUUCAGCCGGUCUGAUGAGUCUAAAAAAAGACGAAACAGC [AAAAAA]      1.97
13  GCUGUCACCGGUGCUUGGUACGUUAUAUUCAGCCGGUCUGAUGAGUCUCUAGUGAGACGAAACAGC [CUAGUG]      2.03
14  GCUGUCACCGGUGCUUGGUACGUUAUAUUCAGCCGGUCUGAUGAGUCUGGACUGAGACGAAACAGC [GGACUG]         2
15  GCUGUCACCGGUGCUUGGUACGUUAUAUUCAGCCGGUCUGAUGAGUCUGAAAUGAGACGAAACAGC [GAAAUG]      2.03
16  GCUGUCACCGGUGCUUGGUACGUUAUAUUCAGCCGGUCUGAUGAGUCUGCACACAGACGAAACAGC [GCACAC]         2
17  GCUGUCACCGGUGCUUGGUACGUUAUAUUCAGCCGGUCUGAUGAGUCUAUUUCAAGACGAAACAGC [AUUUCA]      2.01
